Cited source: the supplement of paper PMC10899765

Test system: MCF10A
Assay: percent viability (nuclei count relative to siNT); higher = more viable cells
Conditions: 20 nM; 72 h
Reported property: percent viability (%)
Give just the number in %; leave the unit off.

Field: example entries. Status: answers known.
[[record]]
chain_sequence = "GCCUGGAGCUACUCCACCAUCUC [hsa-miR-4254]"
readout_number = 26.1

[[record]]
chain_sequence = "UUAUUGUCACGUUCUGAUU [hsa-miR-5701]"
readout_number = 22.2

[[record]]
chain_sequence = "AGGUUCUGUGAUACACUCCGACU [hsa-miR-152-5p]"
readout_number = 22

[[record]]
chain_sequence = "UGGCGAUUUUGGAACUCAAUGGCA [hsa-miR-8053]"
readout_number = 36.7

[[record]]
chain_sequence = "CUGGACUUUGAUCUUGCCAUAA [hsa-miR-8058]"
readout_number = 58.9


Here is another sequence to look at.
Query: Write down the reported percent viability of CCAGAGGUGGGGACUGAG [hsa-miR-4257] , test system: MCF10A.
Response: 24.6

###

Test system: MCF10A
Experiment: one-nucleolus phenotype percent effect (relative to siNT 0% and siNOL11 100%); higher = more cells with one nucleolus (ribosome biogenesis inhibition)
Settings: 20 nM; 72 h
Reported property: one-nucleolus phenotype percent effect (%)
Give just the number in %; leave the unit off.

[[record]]
chain_sequence = "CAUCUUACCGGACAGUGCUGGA [hsa-miR-200a-5p]"
reported_property = "one-nucleolus phenotype percent effect"
unit_text = "%"
readout_number = 5.98

[[record]]
chain_sequence = "ACUGAAUCCUCUUUUCCUCAG [hsa-miR-5187-3p]"
reported_property = "one-nucleolus phenotype percent effect"
unit_text = "%"
readout_number = -12.2


Query: Param item = ACCGAAGACUGUGCGCUAAUCU [hsa-miR-4671-5p] ; retrieve measured one-nucleolus phenotype percent effect.
Response: -20.7

Query: And then AGUGGUUCUUAACAGUUCAACAGUU [hsa-miR-203a-5p] , what is it?
Response: -32.6

Query: And then UUGGGGUGGAGGGCCAAGGAGC [hsa-miR-6819-5p] , what is it?
Response: 37.8

Query: And then AUUGACACCUCUGUGAGUGGA [hsa-miR-514b-3p] , what is it?
Response: 16.1

###

Measured percent viability values are reported for all entries that follow.
Test system: MCF10A
Assay: percent viability (nuclei count relative to siNT); higher = more viable cells
Details: 20 nM; 72 h
Give just the number in %; leave the unit off.

[[record]]
chain_sequence = "CAAAGUCCUUCCUAUUUUUCCC [hsa-miR-6507-3p]"
measurement_target = "MCF10A"
readout_number = 104


Query: Write down the reported percent viability of UAUACAAGGGCAGACUCUCUCU [hsa-miR-300] , test system: MCF10A.
Response: 68.9

Query: And then AGGACCUUCCCUGAACCAAGGA [hsa-miR-659-5p] , what is it?
Response: 40.3

Query: And then CACCAGGGCAGAGCAGGGCUGA [hsa-miR-6753-5p] , what is it?
Response: 15

Query: And then UUCAAGUAAUUCAGGAUAGGU [hsa-miR-26b-5p] , what is it?
Response: 149

Query: And then UGUCUAUACUCUGUCACUUUAC [hsa-miR-4796-5p] , what is it?
Response: 34.7

Query: And then CACCGGGGAUGGCAGAGGGUCG [hsa-miR-4655-5p] , what is it?
Response: 16.1

Query: And then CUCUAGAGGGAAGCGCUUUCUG [hsa-miR-523-5p] , what is it?
Response: 54.8

Query: And then ACGGUGCUGGAUGUGGCCUUU [hsa-miR-1250] , what is it?
Response: 25

Query: And then UGCGCCUCGGGUGAGCAUG [hsa-miR-668-5p] , what is it?
Response: 43.2

Query: And then UUCGGGCUGGCCUGCUGCUCCGG [hsa-miR-3944-3p] , what is it?
Response: 30.8
